assay: Cytotoxicity against human macrophages assessed as cell viability after 24 hrs by MTT assay; format: cell-based, Macrophage
quantity-name: CC50 at 24 h (nM)

1. COc1ccc(/C=C/c2ncc([N+](=O)[O-])n2CC(C)O)cc1 (stereo unspecified) :: 560
2. CC(O)Cn1c([N+](=O)[O-])cnc1/C=C/c1ccccc1 (stereo unspecified) :: 1500
3. CC(O)Cn1c([N+](=O)[O-])cnc1/C=C/c1ccc(Br)cc1 (stereo unspecified) :: 550
4. CC(O)Cn1c([N+](=O)[O-])cnc1/C=C/c1ccc2ccccc2c1 (stereo unspecified) :: 790
5. CC(O)Cn1c([N+](=O)[O-])cnc1/C=C/c1cccc(Cl)c1 (stereo unspecified) :: 520
6. COc1ccccc1/C=C/c1ncc([N+](=O)[O-])n1CC(C)O (stereo unspecified) :: 480
7. CC(O)Cn1c([N+](=O)[O-])cnc1/C=C/c1ccccc1F (stereo unspecified) :: 1410
8. CC(O)Cn1c([N+](=O)[O-])cnc1/C=C/c1c(F)cccc1Cl (stereo unspecified) :: 710
9. CC(O)Cn1c([N+](=O)[O-])cnc1/C=C/c1ccc([N+](=O)[O-])cc1 (stereo unspecified) :: 410
10. Cc1ccc(/C=C/c2ncc([N+](=O)[O-])n2CC(C)O)cc1 (stereo unspecified) :: 860
11. CC(O)Cn1c([N+](=O)[O-])cnc1/C=C/c1ccc(Cl)cc1Cl (stereo unspecified) :: 810

====

tested on: Escherichia coli; assay: Antibacterial activity against Escherichia coli assessed as survival after 24 hrs by MTT assay; assay type: functional, organism-based
quantity-name: IC50 (µg/mL)

1. Cc1ccc(/C=C/c2ncc([N+](=O)[O-])n2CC(C)O)cc1 (stereo unspecified) :: 111
2. CC(O)Cn1c([N+](=O)[O-])cnc1/C=C/c1ccc(F)cc1 (stereo unspecified) :: 45.3
3. CC(O)Cn1c([N+](=O)[O-])cnc1/C=C/c1ccccc1Br (stereo unspecified) :: 63.6
4. CC(O)Cn1c([N+](=O)[O-])cnc1/C=C/c1ccccc1F (stereo unspecified) :: 72.7
5. CC(O)Cn1c([N+](=O)[O-])cnc1/C=C/c1cccc([N+](=O)[O-])c1 (stereo unspecified) :: 38.8
6. CC(O)Cn1c([N+](=O)[O-])cnc1/C=C/c1c(F)cccc1Cl (stereo unspecified) :: 119
7. COc1cccc(/C=C/c2ncc([N+](=O)[O-])n2CC(C)O)c1 (stereo unspecified) :: 181
8. CC(O)Cn1c([N+](=O)[O-])cnc1/C=C/c1cccc(Cl)c1 (stereo unspecified) :: 86.7
9. COc1ccc(/C=C/c2ncc([N+](=O)[O-])n2CC(C)O)cc1 (stereo unspecified) :: 46.1
10. CC(O)Cn1c([N+](=O)[O-])cnc1/C=C/c1cccc(Br)c1 (stereo unspecified) :: 45.4
11. CC(O)Cn1c([N+](=O)[O-])cnc1/C=C/c1ccc(Cl)cc1Cl (stereo unspecified) :: 111
